# Tested on: A673/TR/shEF
# Method Notes: cell viability (LOESS-normalised, relative to median of negative controls) (log2 ratio); higher = more viable cells (less compound effect), active = hit call of the paper (over 3 MAD below the median)
# Condition Label: 2.8 µM; library screen: screen3; EWS-FLI1 expression: high (no doxycycline); treatment time: 72 h
Out of some 3,200 compounds screened, about 300 (9.4%) showed activity. For the sample, actives were picked, then their nearest neighbours and some compounds at random.
Possible outcomes: active, inactive

Nc1ncn([C@H]2C[C@H](O)[C@@H](CO)O2)c(=O)n1 ... inactive
COc1cc2ncnc(Nc3ccc(F)c(Cl)c3)c2cc1OCCCN1CCOCC1 ... inactive
CCC(C)(C)C(=O)O[C@H]1C[C@@H](C)C=C2C=C[C@H](C)[C@H](CC[C@@H]3C[C@@H](O)CC(=O)O3)[C@H]21 ... inactive
C[C@@H]1C/C=C/C=C/C=C/C=C/[C@H](OC2O[C@H](C)[C@@H](O)[C@H](N)[C@@H]2O)C[C@@H]2O[C@](O)(C[C@@H](O)C[C@H]3O[C@@H]3/C=C/C(=O)O1)C[C@H](O)[C@H]2C(=O)O (stereo partly drawn) ... inactive
C#Cc1cccc(Nc2ncnc3cc(OCCOC)c(OCCO)cc23)c1 ... inactive
COc1cc2c(Nc3ccc(Br)cc3F)ncnc2cc1OCC1CCN(C)CC1 ... inactive
CN1CCN(CCOc2cc(OC3CCOCC3)c3c(Nc4c(Cl)ccc5c4OCO5)ncnc3c2)CC1 ... inactive
COc1ccc2nc([S+]([O-])Cc3ncc(C)c(OC)c3C)[nH]c2c1 (stereo not drawn) ... inactive
CC1(C)C(=O)N(CCN2CCC(C(=O)c3ccc(F)cc3)CC2)c2ccccc21 ... inactive
Oc1ccc(/C=C/c2cc(O)cc(O)c2)cc1 ... inactive
Nc1ccn([C@@H]2O[C@H](CO)[C@@H](O)[C@@H]2O)c(=O)n1 ... active
C#Cc1cccc(Nc2ncnc3cc(OCCOC)c(OCCOC)cc23)c1 ... inactive
CC(C)C[C@H](NC(=O)[C@H](Cc1ccccc1)NC(=O)c1cnccn1)B(O)O ... active
COc1cc2c(N3CCN(C(=O)Nc4ccc(OC(C)C)cc4)CC3)ncnc2cc1OCCCN1CCCCC1 ... inactive
C=C1c2cccc(O)c2C(O)=C2C(=O)[C@]3(O)C(O)=C(C(N)=O)C(=O)[C@@H](N(C)C)[C@@H]3[C@@H](O)[C@H]12 ... inactive
O=c1c(-c2ccc(O)cc2)coc2cc(O)ccc12 ... inactive
COc1cccc2c1C(=O)c1c(O)c3c(c(O)c1C2=O)C[C@@](O)(C(C)=O)C[C@@H]3O[C@H]1C[C@H](N)[C@H](O)[C@H](C)O1 ... active
COc1cccc2c1C(=O)c1c(O)c3c(c(O)c1C2=O)C[C@@](O)(C(=O)CO)C[C@@H]3O[C@H]1C[C@H](N)[C@H](O)[C@H](C)O1 ... active
CCCCCCOC(=O)/N=C(/N)c1ccc(NCc2nc3cc(C(=O)N(CCC(=O)OCC)c4ccccn4)ccc3n2C)cc1 ... inactive
CS(=O)(=O)CCNCc1ccc(-c2ccc3ncnc(Nc4ccc(OCc5cccc(F)c5)c(Cl)c4)c3c2)o1 ... inactive
CC(C)(C)C(=O)OCOP(=O)(COCCn1cnc2c(N)ncnc21)OCOC(=O)C(C)(C)C ... active
COc1c(O)cc(C2Oc3c(c(O)cc(O)c3[C@H]3c4c(O)cc(O)cc4O[C@H](c4ccc(O)cc4)[C@@H]3O)C[C@H]2O)cc1O (stereo partly drawn) ... inactive
COc1cccc2c1C(=O)c1c(O)c3c(c(O)c1C2=O)C[C@@](O)(C(=O)CO)C[C@@H]3O[C@H]1C[C@H](N)[C@@H](O)[C@H](C)O1 ... active
CCOc1cc2ncc(C#N)c(Nc3ccc(OCc4ccccn4)c(Cl)c3)c2cc1NC(=O)/C=C/CN(C)C ... inactive
C[C@@H](O)[C@H]1C(=O)N2C(C(=O)[O-])=C(SC3Cn4cnc[n+]4C3)[C@H](C)[C@H]12 (stereo partly drawn) ... inactive
CCOc1cc2ncc(C#N)c(Nc3ccc(F)c(Cl)c3)c2cc1NC(=O)/C=C/CN(C)C ... active
C#Cc1cccc(Nc2ncnc3cc(OC)c(OCCCCCCC(=O)NO)cc23)c1 ... active
NC(=O)c1ncn([C@@H]2O[C@H](CO)[C@@H](O)[C@H]2O)c1N ... inactive
Nc1ccn([C@@H]2CS[C@H](CO)O2)c(=O)n1 ... inactive
COc1c(C)c2c(c(O)c1C/C=C(\C)CCC(=O)O)C(=O)OC2 ... inactive
C=CC(=O)Nc1cc2c(Nc3ccc(F)c(Cl)c3)ncnc2cc1OCCCN1CCOCC1 ... inactive
Oc1ccc([C@@H]2Oc3ccc(O)cc3[C@@H]3CCC[C@@H]32)cc1 ... inactive
CN(C)C/C=C/C(=O)Nc1cc2c(Nc3ccc(F)c(Cl)c3)ncnc2cc1O[C@H]1CCOC1 ... inactive
CCN(CCO)CCCOc1ccc2c(Nc3cc(CC(=O)Nc4cccc(F)c4)[nH]n3)ncnc2c1 ... active
Cn1c(CNc2ccc(C(=N)N)cc2)nc2cc(C(=O)N(CCC(=O)O)c3ccccn3)ccc21 ... inactive
C[C@H](Cn1cnc2c(N)ncnc21)OCP(=O)(O)O ... inactive
CNC(=O)CN(CCN(CCN(CC(=O)[O-])CC(=O)NC)CC(=O)[O-])CC(=O)[O-].O.[Gd+3] ... inactive
NCCCCCC(=O)O ... inactive

###

# Tested on: A673/TR/shEF
# Method Notes: cell viability (LOESS-normalised, relative to median of negative controls) (log2 ratio); higher = more viable cells (less compound effect), active = hit call of the paper (over 3 MAD below the median)
# Condition Label: 25 µM; library screen: screen3; EWS-FLI1 expression: low (doxycycline-induced shRNA knockdown); treatment time: 72 h
Screen size: about 3,200 compounds; about 300 (9.4%) showed activity. Shown is part of a subset that was picked to be rich in actives.
Measurement Name: cell viability (log2)

C#Cc1cccc(Nc2ncnc3cc(OC)c(OCCCCCCC(=O)NO)cc23)c1 ... -1.64
CCCCC1C(=O)N(c2ccccc2)N(c2ccccc2)C1=O ... 0.141
Oc1ccc(OCc2ccccc2)cc1 ... 0.0776
CN(C)c1ccc(C(=C2C=CC(=[N+](C)C)C=C2)c2ccc(N(C)C)cc2)cc1 ... -1.87
CNC(=O)CN(CCN(CCN(CC(=O)[O-])CC(=O)NC)CC(=O)[O-])CC(=O)[O-].O.[Gd+3] ... 0.134
C[C@]12CC[C@@H]3c4ccc(O)cc4CC[C@H]3[C@@H]1CC[C@@H]2O ... 0.0719
COc1cc2c(Nc3ccc(Br)cc3F)ncnc2cc1OCC1CCN(C)CC1 ... -0.0825
C=C1c2cccc(O)c2C(O)=C2C(=O)[C@]3(O)C(O)=C(C(N)=O)C(=O)[C@@H](N(C)C)[C@@H]3[C@@H](O)[C@H]12 ... 0.0914
Nc1nc(=S)c2[nH]cnc2[nH]1 ... 0.027
Nc1nc(F)nc2c1ncn2[C@@H]1O[C@H](CO)[C@@H](O)[C@@H]1O ... 0.0699
Oc1ccc([C@@H]2Oc3ccc(O)cc3[C@@H]3CCC[C@@H]32)cc1 ... -0.0464
Clc1ccc(COC(Cn2ccnc2)c2ccc(Cl)cc2Cl)cc1 (stereo not drawn) ... -0.0458
C/C(=C\C(=O)Nc1ccccc1C(=O)O)c1ccc2ccccc2c1 ... 0.0416
Cn1c(=O)c2[nH]cnc2n(C)c1=O ... 0.0984
COc1cc2c(cc1O)CC[C@@H]1[C@@H]2CC[C@]2(C)[C@@H](O)CC[C@@H]12 ... -0.177
CC[C@]1(O)C[C@H]2CN(CCc3c([nH]c4ccccc34)[C@@](C(=O)OC)(c3cc4c(cc3OC)N(C=O)[C@H]3[C@@](O)(C(=O)OC)[C@H](OC(C)=O)[C@]5(CC)C=CCN6CC[C@]43[C@@H]65)C2)C1 ... -0.84
COc1cc2ncnc(Nc3ccc(F)c(Cl)c3)c2cc1OCCCN1CCOCC1 ... 0.0721
CS(=O)(=O)CCNCc1ccc(-c2ccc3ncnc(Nc4ccc(OCc5cccc(F)c5)c(Cl)c4)c3c2)o1 ... 0.0962
NCCCCCC(=O)O ... 0.145
Nc1ncnc2c1ncn2[C@@H]1O[C@H](CO)[C@@H](O)[C@H]1O ... 0.158
Nc1nc(Cl)nc2c1ncn2[C@H]1C[C@H](O)[C@@H](CO)O1 ... -0.402
COC(=O)Nc1ccc(-c2nc(N3CCOCC3)c3cnn(C4CCN(Cc5cccnc5)CC4)c3n2)cc1 ... -1.76
Nc1ncnc2nc[nH]c12 ... 0.0745
CC[C@@]1(O)C(=O)OCc2c1cc1n(c2=O)Cc2cc3c(CN(C)C)c(O)ccc3nc2-1 ... -1.44
CCC(C)n1ncn(-c2ccc(N3CCN(c4ccc(OC[C@H]5CO[C@](Cn6cncn6)(c6ccc(Cl)cc6Cl)O5)cc4)CC3)cc2)c1=O (stereo partly drawn) ... 0.11
CC1(C)C(=O)N(CCN2CCC(C(=O)c3ccc(F)cc3)CC2)c2ccccc21 ... 0.0236
CNC[C@H](O)c1ccc(O)c(O)c1 ... 0.00995
Cn1c(CNc2ccc(C(=N)N)cc2)nc2cc(C(=O)N(CCC(=O)O)c3ccccn3)ccc21 ... 0.0437
C=CC(=O)Nc1cc2c(Nc3ccc(F)c(Cl)c3)ncnc2cc1OCCCN1CCOCC1 ... -0.281
CO[C@@H](C(=O)N1Cc2[nH]nc(NC(=O)c3ccc(N4CCN(C)CC4)cc3)c2C1)c1ccccc1 ... -1.21
C#Cc1cccc(Nc2ncnc3cc(OCCOC)c(OCCOC)cc23)c1 ... -0.0451
CN(C)C/C=C/C(=O)Nc1cc2c(Nc3ccc(F)c(Cl)c3)ncnc2cc1O[C@H]1CCOC1 ... -1
Nc1ncnc2c1ncn2[C@@H]1O[C@H](CO)[C@@H](O)[C@@H]1O ... 0.128
COc1ccc2nc([S@@+]([O-])Cc3ncc(C)c(OC)c3C)[nH]c2c1 ... -0.0116
CCC1=C[C@@H]2CN(C1)Cc1c([nH]c3ccccc13)[C@@](C(=O)OC)(c1cc3c(cc1OC)N(C)[C@H]1[C@@](O)(C(=O)OC)[C@H](OC(C)=O)[C@]4(CC)C=CCN5CC[C@]31[C@@H]54)C2 ... -0.836
CCc1c2c(nc3ccc(OC(=O)N4CCC(N5CCCCC5)CC4)cc13)-c1cc3c(c(=O)n1C2)COC(=O)[C@]3(O)CC ... -0.647
Nc1ccc(S(=O)(=O)Nc2ncccn2)cc1 ... 0.15
O=C1[C@H](Cc2ccc(O)cc2)N2C(=O)CCN(C(=O)NCc3ccccc3)[C@H]2CN1Cc1cccc2ccccc12 ... -1.18
